assayed_system: HLA-B*58:01 (Homo sapiens, UniProt P01889, A329T/C349S/D201E/D98Y/E176V/E187L/E204Q/E69T/G107R/I218V/I90N/K202T/L105A/L119I/N104I/N87E/Q89R/Q94S/R106L/R155S/R180L/R86G/S101N/S121R/S35A/S48A/T118I/V127L/V306I/V36M/Y140S/Y91M)
Format: binding
value_type: Aff B*58:01 (ED50) (M)
Give bare numbers, in M.

// known answers, use as guide
| substance | unit | recorded_value |
| --- | --- | --- |
| QAALQSAWQ [Rv0288_36–44] | M | 5e-05 |
| IMYNYPAML [Rv0288_4–12] | M | 2e-07 |
| AAGGHNAVF | M | 2e-07 |
| GITYQAWQA [Rv0288_48–56] | M | 9e-08 |
| MSQIMYNYP [Rv0288_1–9] | M | 4e-06 |
| EQAALQSAW [Rv0288_35–43] | M | 6e-06 |
| RAYHSMSST [Rv0288_67–75m1] | M | 2e-08 |
| WQGDTGITY [Rv0288_43–51] | M | 8e-06 |

Provide reported Aff B*58:01 (ED50) for each item, in the same order as listed.
1. DTGITYQAW [Rv0288_46–54]
2. SSTHEANTM [Rv0288_73–81]
3. SAWQGDTGI [Rv0288_41–49]
4. AGCQTYKW E

Marked response:
1. 1e-06
2. 2e-06
3. 3e-08
4. 2e-07

Exam item: Return Aff B*58:01 (ED50) for the following substance: QSLGAEIAV [Rv0288_26–34wt]
Marked response: 0.0002

---

assayed_system: HLA-A*30:02 (Homo sapiens, UniProt P04439, D101N/D140H/D185E/E176R/F33S/G80R/H175R/K168Q/Q94H/R138E/R41S/V100E)
Assay type: binding
conditions_used: percent relative the binding of positive control peptide […]; duplicated experiments; positive binder >40%
Tag: yes if measured Bind A*30:02 is not below 60%, no if it is.

Some solved cases for reference:
| substance | classification |
| --- | --- |
| LVANNT RLW | yes |
| PNGTHSWEY | yes |
| GANIPAEFL | no |

Exam item: // inclusive: Bind A*30:02 at least 60%? input: "SLSALLDPS"
Marked response: no

Exam item: // inclusive: Bind A*30:02 at least 60%? input: "KGDLQSSLG"
Marked response: no

Exam item: // inclusive: Bind A*30:02 at least 60%? input: "ELGGANIPA"
Marked response: no

Exam item: // inclusive: Bind A*30:02 at least 60%? input: AGCQTYKW E
Marked response: no

Exam item: // inclusive: Bind A*30:02 at least 60%? input: IMYNYPTML [Rv0288_4–12m1]
Marked response: no

Exam item: // inclusive: Bind A*30:02 at least 60%? input: "AAYHPQQFI"
Marked response: no

---

assayed_system: HLA-A*30:02 (Homo sapiens, UniProt P04439, D101N/D140H/D185E/E176R/F33S/G80R/H175R/K168Q/Q94H/R138E/R41S/V100E)
Type: binding
conditions_used: percent relative the binding of positive control peptide […]; duplicated experiments; positive binder >40%
value_type: Bind A*30:02 (%)
One number for each entry, in %.

Provide reported Bind A*30:02 for each item, in the same order as listed.
1. NGT HSWEYW
2. ETFLTSELP
3. AMKGDLQSS

Marked response:
[83, 0, 47]

Provide reported Bind A*30:02 for each item, in the same order as listed.
1. QWLSANRAV
2. YHPQQFIYA
3. SMAGSSAMI

Marked response:
120
0
45

Provide reported Bind A*30:02 for each item, in the same order as listed.
1. KAADMW GPS
2. LLDGLRAQD

Marked response:
1: 103; 2: 140

Provide reported Bind A*30:02 for each item, in the same order as listed.
1. ILAAYHPQQ
2. SAAIGLSMA
3. AVFNFPPNG
4. HSMSSTHEA [Rv0288_70–78m1]
5. MYNYPTMLD [Rv0288_5–13m3]
6. PVGGQSSFY
7. VQFQSGGNN
8. SGLSIVMPV

Marked response:
1: 45; 2: 0; 3: 101; 4: 39; 5: 0; 6: 82; 7: 51; 8: 38

Provide reported Bind A*30:02 for each item, in the same order as listed.
1. VYLLDGLRA
2. QLNAMKGDL
3. SFYSDW YSP
4. GQSSFYSDW
5. PTQQIPKLV
6. GGNNSPAVY
7. YWGAQLNAM

Marked response:
[98, 0, 77, 71, 86, 90, 63]

Provide reported Bind A*30:02 for each item, in the same order as listed.
1. NAMKGDLQS
2. PSQGMGPSL
3. NTPAFEWYY
4. MW GPSSDPA
5. QQFIYAGSL
6. DINTPAFEW
7. ACGKAGCQT
8. NAAGGHNAV

Marked response:
1: 0; 2: 16; 3: 99; 4: 74; 5: 80; 6: 0; 7: 0; 8: 2

Provide reported Bind A*30:02 for each item, in the same order as listed.
1. MGPSLIGLA
2. RLWVYCGNG
3. AMGDAGGYK
4. LTSELPQW L
5. MILAAYHPQ
6. GSSAMILAA

Marked response:
1. 0
2. 65
3. 80
4. 19
5. 82
6. 0

Provide reported Bind A*30:02 for each item, in the same order as listed.
1. IPAEFLENF
2. PAVYLLDGL
3. KLVANNT RL
4. KAGCQTYKW
5. MAGSSAMIL
6. YAGSLSALL
7. SSAMILAAY

Marked response:
1. 0
2. 120
3. 167
4. 45
5. 13
6. 64
7. 118

---

assayed_system: HLA-A*30:02 (Homo sapiens, UniProt P04439, D101N/D140H/D185E/E176R/F33S/G80R/H175R/K168Q/Q94H/R138E/R41S/V100E)
Format: binding
conditions_used: peptide titrated 10−4 to 10−9 M
For each record, check the reported Aff A*30:02 (ED50): if it is below 90 nM write 1, else write -1.

Some solved cases for reference:
| residue_codes | classification |
| --- | --- |
| AMASTEGNV [Rv3875_82–90] | 1 |
| VQQKWDATA [Rv3875_54–62] | 1 |
| AAWGGSGSE [Rv3875_41–49] | -1 |
| TATELNNAL [Rv3875_61–69] | 1 |
| WGGSGSEAY [Rv3875_43–51] | -1 |
| AAAWGGSGS [Rv3875_40-48] | 1 |

Exam item: Does this sequence meet the criterion Aff A*30:02 (ED50) < 90 nM? SAIQGNVTS [Rv3875_16–24]
Marked response: 1

---

assayed_system: HLA-A*68:01 (Homo sapiens, UniProt P04439, A269V/D185E/E176V/E277Q/E87N/F33Y/G231S/I121M/I166T/I218V/L180W/L300P/L318F/N151K/P208A/P217A/Q86R/R169H/T345S)
Assay type: binding
conditions_used: percent relative the binding of positive control peptide […]; duplicated experiments; positive binder >40%
value_type: Bind A*68:01 (%)
One number for each entry, in %.

// known answers, use as guide
| substance | unit | recorded_value |
| --- | --- | --- |
| AGCQTYKW E | % | 4 |
| VYLLDGLRA | % | 13 |
| KLVANNT RL | % | 18 |
| QAALQSAWQ [Rv0288_36–44] | % | 17 |
| DLVRAYHSM [Rv0288_64–72m1] | % | 4 |
| AVFNFPPNG | % | 81 |

Provide reported Bind A*68:01 for each item, in the same order as listed.
1. SALLDPSQG
2. HAMSSTHEA [Rv0288_70–78]
3. RDTAEAAKW [Rv0288_86–94]

Marked response:
1: 0; 2: 77; 3: 65

---

assayed_system: HLA-B*58:01 (Homo sapiens, UniProt P01889, A329T/C349S/D201E/D98Y/E176V/E187L/E204Q/E69T/G107R/I218V/I90N/K202T/L105A/L119I/N104I/N87E/Q89R/Q94S/R106L/R155S/R180L/R86G/S101N/S121R/S35A/S48A/T118I/V127L/V306I/V36M/Y140S/Y91M)
Assay type: binding
conditions_used: percent relative the binding of positive control peptide […]; duplicated experiments; positive binder >40%
Record form. Attribute: Bind B*58:01. Fill in for each entry.
Numbers only, in %.

| substance | unit | recorded_value |
| --- | --- | --- |
| MAGSSAMIL | % | 55 |
| DPSQGMGPS | % | 12 |
| LSMAGSSAM | % | 0 |
| NFVRSSNLK | % | 10 |
| VQFQSGGNN | % | 0 |
| RAVKPT GSA | % | 72 |
| CGNGTPNEL | % | 0 |
| NFPPNGTHS | % | 26 |

Provide reported Bind B*58:01 for each item, in the same order as listed.
1. ANNTRLWVY
2. QLNAMKGDL
3. TSELPQW LS
4. SSTHEANTM [Rv0288_73–81]
5. YQSGLSIVM
6. KGDLQSSLG

Marked response:
19
0
0
41
0
0

Provide reported Bind B*58:01 for each item, in the same order as listed.
1. QSSFYSDWY
2. NLKFQDAYN
3. YWGAQLNAM

Marked response:
1: 39; 2: 0; 3: 0

Provide reported Bind B*58:01 for each item, in the same order as listed.
1. QSLGAEIAV [Rv0288_26–34wt]
2. ETFLTSELP
3. TGITYQAWQ [Rv0288_47–55]
4. SMAGSSAMI
5. NNSPAVYLL
6. AGSSAMILA
7. DTGITYQAW [Rv0288_46–54]
8. NAVFNFPPN

Marked response:
1: 30; 2: 16; 3: 40; 4: 95; 5: 0; 6: 12; 7: 41; 8: 28
